Molecular target: factor Xa (Homo sapiens, UniProt P00742)
Sequence (P00742 235-488 limits assumed): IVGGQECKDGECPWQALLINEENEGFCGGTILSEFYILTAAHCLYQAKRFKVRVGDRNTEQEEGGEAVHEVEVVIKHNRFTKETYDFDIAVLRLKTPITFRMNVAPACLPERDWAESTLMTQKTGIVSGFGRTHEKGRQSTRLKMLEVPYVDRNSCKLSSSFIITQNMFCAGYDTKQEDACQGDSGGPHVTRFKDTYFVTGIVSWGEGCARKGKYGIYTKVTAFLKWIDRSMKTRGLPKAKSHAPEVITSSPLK
Sequence (P00742 41-179 limits assumed): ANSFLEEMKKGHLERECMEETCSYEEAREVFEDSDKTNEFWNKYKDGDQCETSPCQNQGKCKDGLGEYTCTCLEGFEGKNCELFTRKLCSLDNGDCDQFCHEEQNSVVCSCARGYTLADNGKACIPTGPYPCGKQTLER
parameter: IC50
Answer format: value, then unit.

GET IC50 | system: factor Xa (Homo sapiens, UniProt P00742) | item: O=C(Cc1ccc2[nH]c(-c3ccc(Cl)s3)nc2c1)Nc1ccc(-n2ccccc2=O)cc1
180 nM
